# testedTarget: bovine cardiac myofibrils (full-length cardiac myosin ATPase in the native sarcomere) (Bos taurus (Bovine))
# Sequence (Q9BE39 whole entry): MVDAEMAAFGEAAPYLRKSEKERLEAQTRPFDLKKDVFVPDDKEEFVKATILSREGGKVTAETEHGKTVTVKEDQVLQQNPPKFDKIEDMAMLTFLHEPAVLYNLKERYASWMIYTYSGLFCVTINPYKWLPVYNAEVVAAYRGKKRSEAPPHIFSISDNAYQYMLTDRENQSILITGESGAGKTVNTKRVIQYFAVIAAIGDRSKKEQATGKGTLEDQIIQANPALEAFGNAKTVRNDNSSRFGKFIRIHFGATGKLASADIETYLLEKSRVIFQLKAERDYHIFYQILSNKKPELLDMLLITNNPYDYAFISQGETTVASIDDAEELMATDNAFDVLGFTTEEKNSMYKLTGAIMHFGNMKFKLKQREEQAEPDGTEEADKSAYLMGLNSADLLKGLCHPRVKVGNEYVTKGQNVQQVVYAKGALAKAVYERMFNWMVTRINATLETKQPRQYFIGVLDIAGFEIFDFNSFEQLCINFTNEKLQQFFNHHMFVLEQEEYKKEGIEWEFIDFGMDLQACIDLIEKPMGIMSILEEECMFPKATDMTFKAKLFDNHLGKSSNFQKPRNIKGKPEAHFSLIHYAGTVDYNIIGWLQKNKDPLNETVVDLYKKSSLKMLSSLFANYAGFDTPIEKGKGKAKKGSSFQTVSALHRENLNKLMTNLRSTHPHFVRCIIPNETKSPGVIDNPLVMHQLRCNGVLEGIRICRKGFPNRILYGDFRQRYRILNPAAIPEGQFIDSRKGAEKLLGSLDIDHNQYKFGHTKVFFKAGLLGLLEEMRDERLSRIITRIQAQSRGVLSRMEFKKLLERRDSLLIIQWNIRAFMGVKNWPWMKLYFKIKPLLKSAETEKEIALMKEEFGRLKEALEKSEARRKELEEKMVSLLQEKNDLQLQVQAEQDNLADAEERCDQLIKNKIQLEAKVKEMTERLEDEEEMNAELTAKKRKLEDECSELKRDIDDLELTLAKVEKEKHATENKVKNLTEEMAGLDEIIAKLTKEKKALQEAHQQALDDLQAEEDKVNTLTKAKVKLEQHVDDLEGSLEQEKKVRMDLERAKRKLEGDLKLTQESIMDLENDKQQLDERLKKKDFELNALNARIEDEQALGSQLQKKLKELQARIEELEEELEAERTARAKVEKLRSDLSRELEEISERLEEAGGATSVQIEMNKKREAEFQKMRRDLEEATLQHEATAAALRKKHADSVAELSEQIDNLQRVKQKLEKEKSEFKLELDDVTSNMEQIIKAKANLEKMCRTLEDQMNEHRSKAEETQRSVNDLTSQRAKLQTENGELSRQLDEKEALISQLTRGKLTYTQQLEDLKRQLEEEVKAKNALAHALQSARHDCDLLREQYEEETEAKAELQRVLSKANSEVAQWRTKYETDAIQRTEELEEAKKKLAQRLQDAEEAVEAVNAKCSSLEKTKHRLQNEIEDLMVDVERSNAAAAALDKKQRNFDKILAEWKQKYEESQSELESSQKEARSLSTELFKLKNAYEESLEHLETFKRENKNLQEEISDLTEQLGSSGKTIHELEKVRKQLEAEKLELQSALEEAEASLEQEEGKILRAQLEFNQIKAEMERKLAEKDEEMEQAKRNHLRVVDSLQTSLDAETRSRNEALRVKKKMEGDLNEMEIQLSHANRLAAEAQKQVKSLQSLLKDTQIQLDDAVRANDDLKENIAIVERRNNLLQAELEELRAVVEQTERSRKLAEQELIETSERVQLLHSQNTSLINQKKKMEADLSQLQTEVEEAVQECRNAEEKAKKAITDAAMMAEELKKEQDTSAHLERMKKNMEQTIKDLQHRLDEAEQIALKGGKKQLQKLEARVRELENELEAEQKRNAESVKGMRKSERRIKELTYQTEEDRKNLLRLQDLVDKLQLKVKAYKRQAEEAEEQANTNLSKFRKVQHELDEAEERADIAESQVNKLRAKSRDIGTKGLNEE
# Sequence (P85100 whole entry partner): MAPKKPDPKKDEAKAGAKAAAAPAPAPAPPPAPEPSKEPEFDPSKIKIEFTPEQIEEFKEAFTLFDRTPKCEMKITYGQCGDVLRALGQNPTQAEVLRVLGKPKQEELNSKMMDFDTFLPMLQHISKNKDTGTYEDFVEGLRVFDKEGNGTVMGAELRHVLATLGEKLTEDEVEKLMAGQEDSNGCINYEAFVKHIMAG
# Sequence (Q3SZE5 whole entry partner): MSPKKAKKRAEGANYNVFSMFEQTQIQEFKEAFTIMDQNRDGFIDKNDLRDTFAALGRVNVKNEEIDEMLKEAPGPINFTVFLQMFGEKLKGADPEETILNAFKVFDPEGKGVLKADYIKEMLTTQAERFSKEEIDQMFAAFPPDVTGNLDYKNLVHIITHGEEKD
# methodDescription: Skinned bovine cardiac myofibril ATPase assay (PK/LDH-coupled)
# Assay type: biochemical
# assayContext: Ca2+ activating to 75% of maximal rate, concentration giving 15% inhibition
I'd appreciate it if you could label each record using CDMF75 IC15 and these ranges: Low: < 0.8 µM; Medium: ≥ 0.8 µM and < 2 µM; High: ≥ 2 µM

# example entries with known answers
* CC(=O)O[C@@H](C)c1nc(-c2ccc3c(c2)CCC3NC(=O)c2cn(C)nc2C)no1 (some centres unmarked) [Compound 77] | High
* CCc1nc(-c2ccc3c(c2)CC[C@H]3NC(=O)c2cn(C)nn2)no1 [Compound 616] | High
* Cc1noc(-c2ccc3c(c2)CC[C@H]3NC(=O)c2nnn(C)n2)n1 [Compound 203] | Medium
* Cc1ncc(C(=O)N[C@@H]2CCc3cc(-c4noc(C5CCC5)n4)ccc32)o1 [Compound 410] | Medium
* Cn1cc(C(=O)N[C@@H]2CCc3cc(-c4noc(C(F)F)n4)ccc32)cn1 [Compound 186] | Low

Next compound, please.
q: The entry to classify is Cc1nc(-c2ccc3c(c2)OCC3NC(=O)c2cnn(C)c2)no1 (centres unmarked) [Compound 212] ; which class holds it?
a: Medium

====

# testedTarget: bovine cardiac myofibrils (full-length cardiac myosin ATPase in the native sarcomere) (Bos taurus (Bovine))
# methodDescription: Skinned bovine cardiac myofibril ATPase assay (PK/LDH-coupled)
# Type: biochemical
# assayContext: Ca2+ activating to 75% of maximal rate, read-out: CDMF75 IC50
Reported pIC50 values for a set of compounds
Keep it numeric: pIC50 is minus log10 of the concentration in mol/L.

Some entries whose results are on file:
* O=C(N[C@@H]1CCc2cc(-c3noc(C4CCC4)n3)ccc21)c1nn[nH]n1 | 4.53
* CCc1nc(-c2ccc3c(c2)OCC[C@H]3NC(=O)c2ccnn2C)no1 | 5.74
* COc1cc(C(=O)N[C@@H]2CCc3cc(-c4noc(C(F)F)n4)ccc32)ccn1 | 5.30
* CCc1cc(-c2ccc3c(c2)CC[C@H]3NC(=O)c2ccnc(C)c2)no1 | 5.92
* CCc1nc(-c2ccc3c(c2)CC[C@H]3NC(=O)c2cnc(C)s2)no1 | 6.00
* Cc1c(C(=O)N[C@@H]2CCc3cc(-c4nc(C5CC5)no4)ccc32)cnn1C | 5.52
* Cc1nc(-c2ccc3c(c2)OC[C@H]3NC(=O)c2cccc([C@@H](C)O)c2)no1 | 5.07
* Cc1cccc(-c2ccc3c(c2)CC[C@H]3NC(=O)c2ccnn2C)n1 | 4.75
* CCc1nc(-c2ccc3c(c2)CC[C@H]3NC(=O)c2cccc(C(C)O)c2)no1 (some centres unmarked) | 5.82
* [2H]C([2H])([2H])c1noc(-c2ccc3c(c2)CC[C@H]3NC(=O)c2ccnn2C)n1 | 5.62

q: Which pIC50 is listed for `CCc1nc(-c2ccc3c(c2)CC[C@H]3NC(=O)c2cnn(CC(OC)OC)c2)no1` ?
a: 5.05

q: Which pIC50 is listed for `Cc1cc(C(=O)N[C@@H]2CCc3cc(-c4noc(C(F)F)n4)ccc32)ccn1` ?
a: 5.64

q: Which pIC50 is listed for Cc1nc(-c2ccc3c(c2)CCC3NC(=O)Nc2cncnc2)no1 (centres unmarked) ?
a: 4.87

q: Which pIC50 is listed for `Cc1noc(-c2ccc3c(c2)CC[C@H]3NC(=O)c2cnn(CCO)c2C)n1` ?
a: 4.94

q: Which pIC50 is listed for `Cc1ncoc1C(=O)N[C@@H]1CCc2cc(-c3noc(C4CCC4)n3)ccc21` ?
a: 6.15
